From: patent US20050026068A1

testMethodNotes: UV absorbance of PMMA films loaded with additive
Assay type: physicochemical
settings: additive 7.5% w/w of PMMA

| compound | UV 248 nm (absorbance) |
| --- | --- |
| O=C(O)CCC(=O)OC(Cc1c2ccccc2cc2ccccc12)Cc1c2ccccc2cc2ccccc12 | 1.25 /0.5 μm |
| c1ccc2c(CNCc3c4ccccc4cc4ccccc34)c3ccccc3cc2c1 | 0.31 /0.5 μm |
| O=C(OCC(COC(=O)C12CC3CC(CC(C3)C1)C2)Cc1c2ccccc2cc2ccccc12)C12CC3CC(CC(C3)C1)C2 (stereo not shown) | 0.45 /0.5 μm |
| O=C(CCC(=O)OC(Cc1c2ccccc2cc2ccccc12)Cc1c2ccccc2cc2ccccc12)OCc1c2ccccc2cc2ccccc12 | 1.74 /0.5 μm |
| OC(Cc1c2ccccc2cc2ccccc12)Cc1c2ccccc2cc2ccccc12 | 0.48 /0.5 μm |
| O=C(OCc1c2ccccc2cc2ccccc12)c1c2ccccc2cc2ccccc12 | 1.16 /0.5 μm |
| O=C(CCC(=O)OC(Cc1c2ccccc2cc2ccccc12)Cc1c2ccccc2cc2ccccc12)OCC(COC(=O)CCC(=O)OC(Cc1c2ccccc2cc2ccccc12)Cc1c2ccccc2cc2ccccc12)Cc1c2ccccc2cc2ccccc12 | 0.75 /0.5 μm |
| O=C(OCc1c2ccccc2cc2ccccc12)C12CC3CC(CC(C3)C1)C2 [XI, 1-adamantyl 9-anthrylmethylate] | 0.36 /0.5 μm |
| O=C(OCCOc1c2ccccc2cc2ccccc12)OCCOc1c2ccccc2cc2ccccc12 [VI, Di-2-(9-anthryloxy)-ethyl carbonate] | 1.04 /0.5 μm |
| CC(=O)C1CCC2C3CC=C4CC(OC(=O)c5c6ccccc6cc6ccccc56)CCC4(C)C3CCC12C (stereo not shown) | 0.52 /0.5 μm |
